Experiment: clinical
Conditions: human, plasma, po
MEASURED METRIC: Tmax

Query: Which Tmax is listed for COc1cc2c(N)nc(N3CCN(C(=O)OCC(C)(C)O)CC3)nc2c(OC)c1OC [trimazosin] ?
Result: 1 to 2 h
